Experimental Details: Mouse pharmacokinetics i.v. and p.o.
Parameters: species or system mice
Run Conditions: in vivo, po, 60 mg/kg
Value Kind: bioavailability

CSC1O[C@H]([C@H](NC(=O)[C@H]2NC[C@@H]3C[C@H](CC(C)C)CCO[C@H]32)[C@H](C)Cl)C(O)[C@@H](O)[C@H]1O (stereo partly shown) [FSA-513018b] :: 24%

---

System: broad panel of different clinical isolates
Experimental Details: microbe, parasite or virus in culture
Type: cell-based
Run Conditions: Enterococcus faecium, E. faecium HAV#327; Clinical
Value Kind: MIC

C[C@H]1COc2c(N3CCN(C)CC3)c(F)cc3c(=O)c(C(=O)O)cn1c23 :: 4 µg/mL
C[C@H]1c2cccc(O)c2C(=O)C2=C(O)[C@]3(O)C(=O)C(C(N)=O)=C(O)[C@@H](N(C)C)[C@@H]3[C@@H](O)[C@@H]21 :: 0.25 µg/mL
CCC[C@@H]1C[C@@H](C(=O)N[C@@H]([C@H]2O[C@H](SC)[C@H](O)[C@@H](O)[C@H]2O)[C@H](C)Cl)N(C)C1 [Clindamycin, clindamycin, reference compound] :: 8 µg/mL
CC(=O)NC[C@H]1CN(c2ccc(N3CCOCC3)c(F)c2)C(=O)O1 :: 4 µg/mL
CO/N=C(\C(=O)N[C@@H]1C(=O)N2C(C(=O)O)=C(CSc3nc(=O)c(=O)[nH]n3C)CS[C@H]12)c1csc(N)n1 :: 0.5 µg/mL
CN[C@H](CC(C)C)C(=O)N[C@H]1C(=O)N[C@@H](CC(N)=O)C(=O)N[C@H]2C(=O)N[C@H]3C(=O)N[C@H](C(=O)N[C@H](C(=O)O)c4cc(O)cc(O)c4-c4cc3ccc4O)[C@H](O)c3ccc(c(Cl)c3)Oc3cc2cc(c3O[C@@H]2O[C@H](CO)[C@@H](O)[C@H](O)[C@H]2O[C@H]2C[C@](C)(N)[C@H](O)[C@H](C)O2)Oc2ccc(cc2Cl)[C@H]1O :: 4 µg/mL
CC[C@H]1OC(=O)[C@H](C)[C@@H](O[C@H]2C[C@@](C)(OC)[C@@H](O)[C@H](C)O2)[C@H](C)[C@@H](O[C@@H]2O[C@H](C)C[C@H](N(C)C)[C@H]2O)[C@](C)(O)C[C@@H](C)CN(C)[C@H](C)[C@@H](O)[C@]1(C)O :: > 128 µg/mL
CSC1O[C@H]([C@H](NC(=O)[C@H]2NC[C@@H]3C[C@H](CC(C)C)CCO[C@H]32)[C@H](C)Cl)C(O)[C@@H](O)[C@H]1O (some centres unmarked) [FSA-513018b] :: 0.06 µg/mL
